Measured percent control (mortality, anti-feedant effect or growth inhibition) at 200 ppm values are reported for all entries that follow.
system: Spodoptera littoralis; assay: Example B9: Spodoptera littoralis (Egyptian cotton leaf worm), cotton leaf discs, L1 larvae; assay type: in vivo; settings: foliar, 72 h, application rate of 200 ppm, 3 days after infestation, read-out: control in at least one of the three categories (mortality, anti-feedant effect, or growth inhibition)

Study these solved cases before continuing.
compound: C[C@H](NC(=O)Nc1cc(OC(F)(F)C(F)F)c(Cl)cc1Cl)c1nccnc1-c1ncccn1
tested system: Spodoptera littoralis
recorded measurement: ≥ 80%
//
compound: C[C@H](NC(=O)Nc1cc2c(cc1Cl)OCO2)c1ncnn1-c1ncccn1
tested system: Spodoptera littoralis
recorded measurement: ≥ 80%
//
compound: C[C@H](NC(=O)N1CCc2cc(Br)ccc21)c1ncnn1-c1ncccn1
tested system: Spodoptera littoralis
recorded measurement: ≥ 80%
//
compound: C#CCOc1cc(NC(=O)N[C@@H](C)c2ncnn2-c2ncccn2)c(F)cc1Br
tested system: Spodoptera littoralis
recorded measurement: ≥ 80%
//
compound: Cc1cc(Cl)c(Cl)cc1NC(=O)N[C@@H](C)c1ncnn1-c1ncccn1
tested system: Spodoptera littoralis
recorded measurement: ≥ 80%

Ask | What value of measured percent control (mortality, anti-feedant effect or growth inhibition) at 200 ppm is listed for CC(NC(=O)Nc1cnc(C(F)(F)F)cc1Cl)c1nccnc1-n1nccn1 (centres unmarked) ?
Reply | ≥ 80%

Ask | Which percent control (mortality, anti-feedant effect or growth inhibition) at 200 ppm is reported for this compound? CC(C)Oc1cc(NC(=O)N[C@@H](C)c2ncnn2-c2ncccn2)c(Cl)cc1Cl
Reply | ≥ 80%

Ask | Reported percent control (mortality, anti-feedant effect or growth inhibition) at 200 ppm for C[C@H](NC(=O)Nc1cc(Oc2ccc(C(F)(F)F)cn2)c(Cl)cc1Cl)c1ncnn1-c1ncccn1 : what is it?
Reply | ≥ 80%

Ask | // lookup percent control (mortality, anti-feedant effect or growth inhibition) at 200 ppm for C[C@@H](c1ncnn1-c1ncccn1)N(C)C(=O)Nc1cc(OC(F)(F)C(F)F)c(Cl)cc1Cl
Reply | ≥ 80%

Ask | Reported percent control (mortality, anti-feedant effect or growth inhibition) at 200 ppm, compound C[C@H](NC(=O)Nc1cc(OC(F)(F)F)c(F)cc1Br)c1ncnn1-c1ncccn1 : ____
Reply | ≥ 80%

Ask | May I ask what percent control (mortality, anti-feedant effect or growth inhibition) at 200 ppm has been recorded for C[C@H](NC(=O)Nc1cnc(C(F)(F)F)cc1Cl)c1ncnn1-c1ncccn1 ?
Reply | ≥ 80%

Ask | Query: percent control (mortality, anti-feedant effect or growth inhibition) at 200 ppm; subject: CNC(=O)c1cnc(-n2ncnc2[C@H](C)NC(=O)Nc2cc(C(F)(F)F)c(Cl)cc2Cl)s1
Reply | ≥ 80%

Ask | Which percent control (mortality, anti-feedant effect or growth inhibition) at 200 ppm is reported for this compound? C[C@H](NC(=O)Nc1cc(C(F)(F)F)ccc1Cl)c1ncnn1-c1ncccn1
Reply | ≥ 80%

Ask | If you can, please state the reported percent control (mortality, anti-feedant effect or growth inhibition) at 200 ppm value of C[C@H](NC(=O)Nc1ccc(Cl)c(Cl)c1Cl)c1ncnn1-c1ncccn1 .
Reply | ≥ 80%
